Each entry below carries its reported AC1.4.
- Tested on: Bovine cardiac myofibrils
- Procedure Text: In vitro model of dose-dependent myofibril ATPase modulation (AC1.4, pyruvate kinase/lactate dehydrogenase-coupled ATPase assay at pCa25)
- Format: biochemical
- Test Parameters: concentration at which ATPase activity was 1.4-fold higher than the bottom of the dose curve, mean of a minimum of two independent tests

- Smiles Record: "Cc1ccc(Cl)c(CNC(=O)[C@H]2CCCN2C(=O)[C@H]2CCCN(S(=O)(=O)N3CC(C#N)C3)C2)c1"
  System: "Bovine cardiac myofibrils"
  AC1.4, µM: 4.606
- Smiles Record: "N#CC1CN(S(=O)(=O)c2cccc(C(=O)N3CCC[C@@H]3C(=O)N[C@@H](c3ccc(S(F)(F)(F)(F)F)cc3)C3CC3)c2)C1"
  System: "Bovine cardiac myofibrils"
  AC1.4, µM: 0.05535
- Smiles Record: "COc1ccc(CNC(=O)[C@H]2CCCN2C(=O)[C@H]2CCCN(S(=O)(=O)N3CC(C#N)C3)C2)cc1F"
  System: "Bovine cardiac myofibrils"
  AC1.4, µM: 1.8865
- Smiles Record: "N#CC1CN(S(=O)(=O)N2CCC[C@@H](C(=O)N3CCC[C@@H]3C(=O)NCc3ccc(C(F)(F)F)cc3F)C2)C1"
  System: "Bovine cardiac myofibrils"
  AC1.4, µM: 2.753
- Smiles Record: "N#CC1CN(S(=O)(=O)N2CCC[C@H](C(=O)N3CCC[C@@H]3C(=O)NCc3cc(F)cc(F)c3F)C2)C1"
  System: "Bovine cardiac myofibrils"
  AC1.4, µM: 1.0535
- Smiles Record: "N#CC1CN(S(=O)(=O)c2cccc(C(=O)N3CCC[C@@H]3C(=O)N[C@H](c3ccc(C(F)(F)F)cc3)C3CC3)c2)C1"
  System: "Bovine cardiac myofibrils"
  AC1.4, µM: 0.0383
- Smiles Record: "N#CC1CN(S(=O)(=O)N2CCC[C@H](C(=O)N3CCC[C@@H]3C(=O)NCc3ccc(Cl)cc3Cl)C2)C1"
  System: "Bovine cardiac myofibrils"
  AC1.4, µM: 0.1484
- Smiles Record: "N#CC1CN(S(=O)(=O)N2CCC[C@H](C(=O)N3CCC[C@@H]3C(=O)NCc3cccc(F)c3F)C2)C1"
  System: "Bovine cardiac myofibrils"
  AC1.4, µM: 2.446
- Smiles Record: "O=C(N[C@@H](c1ccc(C(F)(F)F)cc1F)C1COC1)[C@H]1C[C@H]2C[C@H]2N1C(=O)c1cncc(C(F)(F)F)c1"
  System: "Bovine cardiac myofibrils"
  AC1.4, µM: 2.5985
- Smiles Record: "CC[C@@H](NC(=O)[C@H]1CCCN1C(=O)c1cccc(S(=O)(=O)N2CC(C#N)C2)c1)c1ccc(C(F)(F)F)cc1"
  System: "Bovine cardiac myofibrils"
  AC1.4, µM: 0.01635
- Smiles Record: "N#CC1CN(S(=O)(=O)N2CCC[C@H](C(=O)N3CCC[C@@H]3C(=O)N[C@H](CC(F)(F)F)c3ccc(C(F)(F)F)cc3)C2)C1"
  System: "Bovine cardiac myofibrils"
  AC1.4, µM: 0.03125
- Smiles Record: "N#CC1CN(S(=O)(=O)c2cc(C(=O)N3CCC[C@@H]3C(=O)NCc3ccc(C(F)(F)F)cc3F)ccn2)C1"
  System: "Bovine cardiac myofibrils"
  AC1.4, µM: 0.2421

====

- Test system: Bovine cardiac myofibrils
- Procedure Text: In vitro model of dose-dependent myofibril ATPase modulation (AC1.4, pyruvate kinase/lactate dehydrogenase-coupled ATPase assay at pCa25)
- Type: biochemical
- Test Parameters: concentration at which ATPase activity was 1.4-fold higher than the bottom of the dose curve, mean of a minimum of two independent tests
Result Type: AC1.4 (µM)

- Molecule: "C[C@H](NC(=O)[C@@H](C)N(C)C(=O)c1cccc(S(=O)(=O)N2CC(C#N)C2)c1)c1ccc(Cl)cc1 [Example 331]"
  System: "Bovine cardiac myofibrils"
  Result Type: "AC1.4"
  Unit Symbol: "µM"
  Readout Number: 0.8976
- Molecule: "C[C@@H](NC(=O)[C@H]1CCCN1C(=O)[C@H]1CCCN(S(=O)(=O)N2CC(C#N)C2)C1)c1cc(F)c(Cl)cc1F [Example 48]"
  System: "Bovine cardiac myofibrils"
  Result Type: "AC1.4"
  Unit Symbol: "µM"
  Readout Number: 0.0531
- Molecule: "N#CC1CN(S(=O)(=O)c2cccc(C(=O)N3CCCCCC3C(=O)NCc3ccc(C(F)(F)F)cc3)c2)C1 (centres unmarked) [Example 96]"
  System: "Bovine cardiac myofibrils"
  Result Type: "AC1.4"
  Unit Symbol: "µM"
  Readout Number: 0.1452
- Molecule: "N#CC1CN(S(=O)(=O)N2CCC[C@H](C(=O)N3CCC[C@@H]3C(=O)N[C@H](c3ccc(C(F)(F)F)cc3)C(F)(F)F)C2)C1 [Example 768]"
  System: "Bovine cardiac myofibrils"
  Result Type: "AC1.4"
  Unit Symbol: "µM"
  Readout Number: 8.033
- Molecule: "C[C@@H](NC(=O)[C@H]1CCCN1C(=O)c1cccc(S(=O)(=O)N2CC(C#N)C2)c1)c1ccc(C(F)F)cc1F [Example 49]"
  System: "Bovine cardiac myofibrils"
  Result Type: "AC1.4"
  Unit Symbol: "µM"
  Readout Number: 0.05315
- Molecule: "N#CC1CN(S(=O)(=O)N2CCC[C@H](C(=O)N3CCC[C@@H]3C(=O)N[C@H](CO)c3cccc(C(F)(F)F)c3)C2)C1 [Example 404]"
  System: "Bovine cardiac myofibrils"
  Result Type: "AC1.4"
  Unit Symbol: "µM"
  Readout Number: 1.4525
- Molecule: "N#CC1CN(S(=O)(=O)c2cccc(C(=O)N3CCC[C@@H]3C(=O)NCc3ncc(C(F)(F)F)cn3)c2)C1 [Example 725]"
  System: "Bovine cardiac myofibrils"
  Result Type: "AC1.4"
  Unit Symbol: "µM"
  Readout Number: 6.507
- Molecule: "CS(=O)(=O)c1ccc(NCCO)c(C(=O)N2CCC[C@@H]2C(=O)N[C@@H](c2ccc(C(F)(F)F)cc2F)C2CC2)c1 [Example 154]"
  System: "Bovine cardiac myofibrils"
  Result Type: "AC1.4"
  Unit Symbol: "µM"
  Readout Number: 0.2715

====

- Test system: Bovine cardiac myofibrils
- Procedure Text: In vitro model of dose-dependent myofibril ATPase modulation (AC1.4, pyruvate kinase/lactate dehydrogenase-coupled ATPase assay at pCa25)
- Assay type: biochemical
- Test Parameters: concentration at which ATPase activity was 1.4-fold higher than the bottom of the dose curve, mean of a minimum of two independent tests
Each entry below carries its reported AC1.4.

- Molecule: "N#CC1CN(S(=O)(=O)N2CCN[C@H](C(=O)N3CCC[C@@H]3C(=O)NCc3ccc(Cl)c(Cl)c3)C2)C1 [Example 257]"
  AC1.4 / µM: 0.6321
- Molecule: "NS(=O)(=O)c1cccc(C(=O)N2C[C@H]3C[C@H]3[C@@H]2C(=O)N[C@@H](c2cc(F)c(Cl)cc2F)C2CC2)c1 [Example 340]"
  AC1.4 / µM: 0.8898
- Molecule: "CN(C)S(=O)(=O)c1cccc(C(=O)N2CCC[C@@H]2C(=O)N[C@H](c2ccc(Cl)c(F)c2)C2CC2)c1 [Example 408]"
  AC1.4 / µM: 1.479
- Molecule: "CS(=O)(=O)c1cccc(C(=O)N2[C@@H](C(=O)NC(c3ccc(C(F)(F)F)cc3F)C3CNC(=O)C3)C[C@H]3C[C@H]32)c1 (stereo partly drawn) [Example 685]"
  AC1.4 / µM: 5.246
- Molecule: "CC(C)C1(O)CN(S(=O)(=O)N2CCC[C@H](C(=O)N3CCC[C@@H]3C(=O)NCc3ccc(C(F)(F)F)cc3F)C2)C1 [Example 332]"
  AC1.4 / µM: 0.9097
- Molecule: "Cc1ccc(C(F)(F)F)cc1CNC(=O)[C@H]1CCCN1C(=O)[C@H]1CCCN(S(=O)(=O)N2CC(C#N)C2)C1 [Example 714]"
  AC1.4 / µM: 6.0545
- Molecule: "O=C(N[C@@H](c1ccc(C(F)(F)F)cc1F)C1CC1)[C@H]1C[C@H]2C[C@H]2N1C(=O)c1cccc(S(=O)(=O)C2CC2)c1 [Example 211]"
  AC1.4 / µM: 0.4488
- Molecule: "O=C(N[C@@H](c1ccc(C(F)(F)F)c(F)c1)C1CC1)[C@H]1C[C@H]2C[C@H]2N1C(=O)c1ccnc(S(=O)(=O)C2CC2)c1 [Example 686]"
  AC1.4 / µM: 5.284
- Molecule: "N#CC1CN(S(=O)(=O)N2CCC[C@H](C(=O)N3CCC[C@@H]3C(=O)NC(c3ccc(Cl)cc3)C3CCCO3)C2)C1 (stereo partly drawn) [Example 132]"
  AC1.4 / µM: 0.2176

====

- Tested on: Bovine cardiac myofibrils
- Procedure Text: In vitro model of dose-dependent myofibril ATPase modulation (AC1.4, pyruvate kinase/lactate dehydrogenase-coupled ATPase assay at pCa25)
- Assay type: biochemical
- Test Parameters: concentration at which ATPase activity was 1.4-fold higher than the bottom of the dose curve, mean of a minimum of two independent tests
API: label(entry) gives 1 (yes) if the entry's AC1.4 is strictly smaller than 1 µM; on equality or larger values it gives 0 (no).

- Smiles Record: "Cc1cc(C(=O)N2[C@@H](C(=O)N[C@@H](c3ccc(C(F)(F)F)cc3F)C3CC3)C[C@H]3C[C@H]32)c(NCCO)cn1"
  Class: "0 (no)"
- Smiles Record: "O=C(NCc1ccc(C(F)(F)F)cc1)[C@H]1CCCN1C(=O)[C@H]1CCCN(S(=O)(=O)C2CCC2)C1"
  Class: "0 (no)"
- Smiles Record: "N#CC1CN(S(=O)(=O)N2CCC[C@H](C(=O)N3CCC[C@@H]3C(=O)NCc3ccc(C(F)(F)F)cc3Cl)C2)C1"
  Class: "1 (yes)"
- Smiles Record: "O=C(NCc1ccc(C(F)(F)F)cc1)[C@H]1CCCN1C(=O)[C@H]1CCCN(S(=O)(=O)N2CC(F)(c3ccccc3)C2)C1"
  Class: "0 (no)"
- Smiles Record: "CS(=O)(=O)c1cncc(C(=O)N2CC[C@H](C(F)(F)F)[C@H]2C(=O)N[C@@H](c2cc(F)c(C(F)(F)F)cc2F)C2CC2)c1"
  Class: "1 (yes)"
- Smiles Record: "C[C@@H](NC(=O)[C@H]1CCCN1C(=O)c1cccc(S(=O)(=O)N2CC(C#N)C2)c1)c1ccc(C(F)F)cc1"
  Class: "1 (yes)"
- Smiles Record: "O=C(N[C@@H](c1cc(F)c(Cl)cc1F)C1CC1)[C@H]1C[C@@H](O)CN1C(=O)c1cncc(C(F)(F)F)c1"
  Class: "0 (no)"
- Smiles Record: "N#CC1CN(S(=O)(=O)N2CCC[C@H](C(=O)N3CCC[C@@H]3C(=O)NCc3cnc(C(F)(F)F)nc3)C2)C1"
  Class: "0 (no)"
